A collection of compounds and their measured %Inh
System: AXL;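 further: KINOMEscan kinase panel screen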
experimentalParameters: concentration: 1 μM, replicates: in singlicate; n = 1
Reply with just the number (in %).

compound	targetDesc	numericReadout
CS(=O)(=O)Cc1ccc(Nc2nccc(-c3c(-c4cccc(NC(=O)C5CCCCC5)c4)nn4ncccc34)n2)cc1	AXL	18
CC(C)c1ccc(O)cc1Nc1ccnc2ccc(C(F)(F)F)cc12	AXL	14
CNc1nc(-c2ccc3c(N)n[nH]c3c2)cc(N2C[C@@H](C(=O)Nc3ccccc3)CC[C@H]2C)n1	AXL	8
c1ccc(-c2ccnc3[nH]ccc23)cc1	AXL	0

Value of measured %Inh for the entry O=C(Nc1n[nH]c2nc(-c3ccco3)c(Br)cc12)C1CCN(Cc2ccccc2)C1.O=C(O)[C@H](O)[C@@H](O)C(=O)O (stereo not drawn) : 13

%Inh measured on `COc1cc2ncnc(Nc3cccc(Br)c3)c2cc1OC.Cl` = 10
